# targetOrTestSystem: human TRPA1 channel (Homo sapiens (Human), UniProt O75762)
# Sequence (O75762 whole entry): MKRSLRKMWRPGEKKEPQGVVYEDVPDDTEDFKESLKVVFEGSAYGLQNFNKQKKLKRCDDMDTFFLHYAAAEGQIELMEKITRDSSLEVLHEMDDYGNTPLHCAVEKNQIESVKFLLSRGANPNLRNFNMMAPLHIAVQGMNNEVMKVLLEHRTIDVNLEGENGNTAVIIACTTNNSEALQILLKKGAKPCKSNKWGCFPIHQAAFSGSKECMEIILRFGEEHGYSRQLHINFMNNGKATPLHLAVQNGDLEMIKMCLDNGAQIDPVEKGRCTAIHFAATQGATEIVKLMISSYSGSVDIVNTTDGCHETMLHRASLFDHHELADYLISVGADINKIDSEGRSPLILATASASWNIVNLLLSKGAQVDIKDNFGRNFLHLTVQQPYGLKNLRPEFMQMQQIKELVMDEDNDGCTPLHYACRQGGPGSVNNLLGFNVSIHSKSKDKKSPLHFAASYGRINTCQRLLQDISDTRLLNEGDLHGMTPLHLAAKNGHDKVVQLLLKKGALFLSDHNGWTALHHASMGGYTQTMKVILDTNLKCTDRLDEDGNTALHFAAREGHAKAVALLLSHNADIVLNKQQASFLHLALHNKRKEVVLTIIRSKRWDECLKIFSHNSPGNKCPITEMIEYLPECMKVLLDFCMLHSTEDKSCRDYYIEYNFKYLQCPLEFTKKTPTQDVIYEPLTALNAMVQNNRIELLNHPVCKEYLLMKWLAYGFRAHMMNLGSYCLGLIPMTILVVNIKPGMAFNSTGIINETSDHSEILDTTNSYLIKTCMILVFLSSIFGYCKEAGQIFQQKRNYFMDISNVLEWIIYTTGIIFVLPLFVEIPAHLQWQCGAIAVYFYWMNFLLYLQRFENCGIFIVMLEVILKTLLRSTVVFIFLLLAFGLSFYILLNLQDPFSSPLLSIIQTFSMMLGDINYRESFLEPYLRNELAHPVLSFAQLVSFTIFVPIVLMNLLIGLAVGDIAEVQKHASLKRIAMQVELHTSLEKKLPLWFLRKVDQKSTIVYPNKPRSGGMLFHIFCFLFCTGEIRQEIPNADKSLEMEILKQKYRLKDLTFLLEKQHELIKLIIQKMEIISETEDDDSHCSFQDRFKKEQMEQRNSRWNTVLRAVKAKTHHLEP
# testDetails: hTRPA1 CHO Ca2+ FLIPR Tetra assay: block of cinnamaldehyde induced calcium influx
# Format: cell-based
# conditionDescription: read-out: hTRPA1 IC50 10 min; CHO cells expressing TRPA1; 10 minutes incubation with compound before cinnamaldehyde (about EC80); Hill coefficient fixed to 1.5
pIC50: −log10 of the molar value.
property: pIC50

{"smi": "Cn1nnc2cnn(Cc3nc([C@@H]4CO[C@@H](c5ccc(Cl)cc5)C4)no3)c(=O)c21", "pIC50": 7.10}

[1] Cn1cnc2ncn(Cc3nc([C@@H]4CO[C@@H](c5ccccc5)C4)no3)c(=O)c21
[2] Cn1cnc2ncn(Cc3nc([C@@H]4CO[C@@H](c5ccc(Br)cc5)C4)no3)c(=O)c21
Incoming: Lab note: record which item had the higher pIC50, 1 or 2 . Write down the label of the entry you select.
Outgoing: 2

* * *

# targetOrTestSystem: human TRPA1 channel (Homo sapiens (Human), UniProt O75762)
# testDetails: hTRPA1 CHO Ca2+ FLIPR Tetra assay: block of cinnamaldehyde induced calcium influx
# Assay type: cell-based
# conditionDescription: read-out: hTRPA1 IC50 90 min; CHO cells expressing TRPA1; 90 minutes incubation with compound before cinnamaldehyde (about EC80); Hill coefficient fixed to 1.5
pIC50: −log10 of the molar value.
property: pIC50

Record excerpt, results attached:
{"smi": "Cn1cnc2c(C#N)nn(Cc3nc([C@@H]4CO[C@@H](c5ccc(Cl)cc5)C4)no3)c2c1=O", "targetOrTestSystem": "human TRPA1 channel (Homo sapiens (Human), UniProt O75762)", "pIC50": 7.62}
{"smi": "Cn1cnc2ncn(Cc3nc([C@@H]4CO[C@@H](c5ccccc5Cl)C4)no3)c(=O)c21", "targetOrTestSystem": "human TRPA1 channel (Homo sapiens (Human), UniProt O75762)", "pIC50": 6.80}

[P] Cc1cnn2ncn(Cc3nc([C@@H]4CO[C@@H](c5ccc(F)cc5)C4)no3)c(=O)c12
[Q] Cc1nc2[nH]c(=O)n(C)c2c(=O)n1Cc1nc([C@@H]2CO[C@@H](c3ccc(Cl)cc3)C2)no1
Incoming: // pick min by pIC50: P , Q Answer format: the label of the selected item.
Outgoing: Q

[P] Cn1cnc2ccn(Cc3nc([C@@H]4CO[C@@H](c5ccc(Cl)cc5)C4)no3)c(=O)c21
[Q] O=c1c2cccnc2ncn1Cc1nc([C@@H]2CO[C@@H](c3ccc(Cl)cc3)C2)no1
[R] Cn1c(NCc2ccccn2)nc2ncn(Cc3nc([C@@H]4CO[C@@H](c5ccc(Cl)cc5)C4)no3)c(=O)c21
Incoming: List by increasing pIC50. Rank them, then answer with their labels in that order.
Outgoing: R, Q, P
(R: 7.54, Q: 8.24, P: 9.38)

[P] Cc1cnn2ncn(Cc3nc([C@@H]4CO[C@@H](c5ccc6cnn(C)c6c5)C4)no3)c(=O)c12
[Q] Cc1ccc(=O)n2ccn(Cc3nc([C@@H]4CO[C@@H](c5ccc(Cl)cc5)C4)no3)c(=O)c12
Incoming: Pick one, P or Q : lowest reported pIC50. Returns: label corresponding to the selected item.
Outgoing: Q
(Q: 8.37, P: 8.64)
